target: T1, human vascular endothelial growth factor receptor-2 Fc chimera (KDR-Fc) (human, UniProt P35968 20-764); assay: BIAcore, target-Fc immobilized
T1 construct: range 1-764; purchased from R&D Systems; also called hKDR; human VEGF-R2-Fc; not shown: human IgG1 Fc
T1 sequence (P35968 20-764 limits assumed, change not shown, form in doubt): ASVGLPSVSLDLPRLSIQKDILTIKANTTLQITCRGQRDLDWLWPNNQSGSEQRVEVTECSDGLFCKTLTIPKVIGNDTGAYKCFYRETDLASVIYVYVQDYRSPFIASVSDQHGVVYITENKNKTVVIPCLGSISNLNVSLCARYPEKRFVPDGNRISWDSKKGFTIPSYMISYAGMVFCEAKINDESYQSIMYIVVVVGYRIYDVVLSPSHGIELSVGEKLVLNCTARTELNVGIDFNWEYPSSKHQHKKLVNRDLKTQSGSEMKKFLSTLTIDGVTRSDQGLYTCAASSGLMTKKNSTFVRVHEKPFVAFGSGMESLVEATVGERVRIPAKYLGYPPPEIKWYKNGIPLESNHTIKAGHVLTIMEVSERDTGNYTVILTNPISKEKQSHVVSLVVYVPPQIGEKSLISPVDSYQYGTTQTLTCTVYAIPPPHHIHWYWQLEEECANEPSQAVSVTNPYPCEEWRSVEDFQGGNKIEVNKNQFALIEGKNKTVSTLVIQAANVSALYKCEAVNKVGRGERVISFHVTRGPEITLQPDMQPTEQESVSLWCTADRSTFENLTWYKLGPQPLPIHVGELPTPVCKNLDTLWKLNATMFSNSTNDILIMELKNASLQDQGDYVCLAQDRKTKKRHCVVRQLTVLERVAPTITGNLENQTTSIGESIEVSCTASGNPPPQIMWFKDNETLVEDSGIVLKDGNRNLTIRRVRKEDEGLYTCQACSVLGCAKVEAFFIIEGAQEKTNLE
pKd: recorded values
Scale note: pKd = -log10(concentration in M).

// below: answered binders
binder	recordedEndpoint	numericValue
E6 (designed binder, Del 1-8 10Fn3 clone; Flag-tagged in vitro translated protein in the radioactive assay, His6-tagged E. coli protein in BIAcore; tags left out) EVVAATPTSLLISWRHPHFPTRYYRITYGETGGNSPVQEFTVPLQPPTATISGLKPGVDYTITGYAVTDGWNGRLLSIPISINYRT	pKd	10.10
M5FL (designed binder, extension and tag left out) VSDVPRDLEVVAATPTSLLISWRHPHFPTRYYRITYGETGGNSPVQEFTVPLQPPLATISGLKPGVDYTITGYAVTKERNGRELFTPISINYRT	pKd	9.05
E19 (designed binder, Del 1-8 10Fn3 clone; Flag-tagged in vitro translated protein in the radioactive assay, His6-tagged E. coli protein in BIAcore and cell assays; tags left out) EVVAATPTSLLISWRHPHFPTRYYRITYGETGGNSPVQEFTVPLQPPTATISGLKPGVDYTITGYAVTVERNGRHLMTPISINYRT	pKd	10.22
E29 (designed binder, Del 1-8 10Fn3 clone; Flag-tagged in vitro translated protein in the radioactive assay, His6-tagged E. coli protein in BIAcore and cell assays; tags left out) EVVAATPTSLLISWRHPHFPTRYYRITYGETGGNSPVQEFTVPLQPPTATISGLKPGVDYTITGYAVTVERNGRVLMTPISINYRT	pKd	9.72

Alright, here's another binder for you.
## Input GET /values?readout=pKd&item= E26 (designed binder, Del 1-8 10Fn3 clone; Flag-tagged in vitro translated protein in the radioactive assay, His6-tagged E. coli protein in BIAcore and cell assays; tags left out) EVVAATPTSLLISWRHPHFPTRYYRITYGETGGNSPVQEFTVPLQPPTATISGLKPGVDYTITGYAVTVERNGRELMTPISINYRT
## Output 9.29
